From: patent US20250282812A1

Assay Procedure: Stability test of compounds in solutions at different pH values
Condition Details: buffered saline solution pH 6.8, 6 h
Metric Name: Content reduction (%)

Answered examples (3):
Molecule	Content reduction (%)
O=c1ccn([C@@H]2O[C@](F)(CO)[C@@H](O)[C@H]2O)c(=O)[nH]1 [Compound X28-1, reference compound]	15.3%
CC(=O)OC[C@@]1(F)O[C@@H](n2ccc(=O)n(COC(=O)c3cccnc3)c2=O)[C@H](OC(C)=O)[C@@H]1OC(C)=O [Compound X219]	1.86%
CC(C)C(=O)OC[C@@]1(F)O[C@@H](n2ccc(=O)n(COC(=O)C3CCCCC3)c2=O)[C@H](O)[C@@H]1O [Compound X55]	2.3%

Prompt: What measured Content reduction (%) goes with CCC(CC)C(=O)OCn1c(=O)ccn([C@@H]2O[C@](F)(COC(=O)C(C)C)[C@@H](O)[C@H]2O)c1=O [Compound X52] ?
Response: 2.3%
